assay: Inhibition of gp120 in HIV-1 subtype B #11578 harboring pseudotyped Env pWEAUd15.410.5017 infected in human TZM-bl cells assessed as reduction in viral infection pretreated for 30 mins before viral infection and measured after 3 days by luciferase based single cycle infection assay
Overview of recorded IC50 for various molecules

Q: What does the record list as IC50 for NCCNC(=O)c1ccc(-c2ccc(Cl)c(F)c2)[nH]1 ?
Result: 3.8 µM

====

assay: Inhibition of gp120 in HIV-1 subtype B #11578 harboring pseudotyped Env pWEAUd15.410.5017 infected in human TZM-bl cells assessed as reduction in viral infection pretreated for 30 mins before viral infection and measured after 3 days by luciferase based single cycle infection assay
pIC50: −log10 of the molar value.
assay.readout: pIC50

Past entries and their recorded results:
structure.notation	pIC50
NC[C@H](NC(=O)c1ccc(-c2ccc(Cl)cc2)[nH]1)c1nccs1	6.10
Cc1nc([C@@H](CCN)NC(=O)C(=O)Nc2ccc(Cl)cc2)sc1CO	< 4.82

Q: Data request, read-out pIC50, for O=C(N[C@H](CC1CCNCC1)c1nc(CO)cs1)c1ccc(-c2ccc(C(F)(F)F)cc2)[nH]1
Result: 4.91

Q: Any idea what its pIC50 is? The compound is NC[C@@H](NC(=O)Cc1ccc(OCC2CCCCC2)cc1)c1ncc(CO)s1
Result: < 4.60

====

assay: Inhibition of gp120 in HIV-1 subtype B #11578 harboring pseudotyped Env pWEAUd15.410.5017 infected in human TZM-bl cells assessed as reduction in viral infection pretreated for 30 mins before viral infection and measured after 3 days by luciferase based single cycle infection assay
Reported IC50 values for the following compounds.

Below: 10 compounds and their reported IC50.
structure.notation	IC50
NC[C@H](NC(=O)c1ccc(OCC2CCCCC2)cc1)c1ncc(CO)s1	> 15 µM
Cc1nc([C@@H](CN)NC(=O)C(=O)Nc2ccc(Cl)cc2)sc1CO	> 27 µM
NC[C@@H](NC(=O)c1ccc(C2CCCCC2)[nH]1)c1ncc(CO)s1	> 28 µM
NC[C@@H](NC(=O)C(=O)NCc1ccc(Cl)c(F)c1)c1ncc(CO)s1	> 15 µM
Cc1nc([C@H](CN)NC(=O)c2cc3cc(Cl)ccc3[nH]2)sc1CO	> 40 µM
NC[C@H](NC(=O)c1ccc(C2CCCCC2)[nH]1)c1ncc(CO)s1	> 28 µM
Cc1nc([C@H](CCN)NC(=O)C(=O)Nc2ccc(Cl)cc2)sc1CO	> 15 µM
NC[C@@H](NC(=O)c1ccc(-c2ccc(Cl)cc2)[nH]1)c1nccs1	3.3 µM
Cc1nc([C@@H](CN)NC(=O)c2cc3cc(Cl)ccc3[nH]2)sc1CO	> 40 µM
O=C(NC1CCNCC1)c1ccc(-c2ccc(Cl)c(F)c2)[nH]1	6.6 µM

Q: Query: IC50; subject: NC[C@H](NC(=O)CNCc1ccc(Cl)cc1)c1ncc(CO)s1
Result: > 23.4 µM

Q: Given Cc1nc([C@H](CN)NC(=O)c2cc3ccccc3[nH]2)sc1CO , state its recorded IC50.
Result: > 60 µM

Q: Sample NC[C@@H](NC(=O)CNCc1ccc(Cl)cc1)c1ncc(CO)s1 — what was its IC50?
Result: > 23.4 µM

Q: State the recorded IC50 for this entry: NC[C@H](NC(=O)Cc1ccc(OCC2CCCCC2)cc1)c1ncc(CO)s1
Result: > 25 µM

Q: Find the recorded IC50 belonging to Cc1nc([C@H](CN)NC(=O)NC(=O)c2ccc(Cl)cc2)sc1CO and report it.
Result: > 54 µM

Q: // returns reported IC50 for input CC1(C)CC(NC(=O)c2ccc(-c3ccc(Cl)c(F)c3)[nH]2)CC(C)(C)N1
Result: 6.2 µM

Q: Tell me the measured IC50 of NC[C@H](NC(=O)c1ccc(NCC2CCCCC2)cc1)c1ncc(CO)s1 , please.
Result: > 15 µM

Q: May I ask what IC50 has been recorded for Cc1nc([C@@H](CN)NC(=O)c2cc3ccccc3[nH]2)sc1CO ?
Result: > 60 µM

Q: Entry under review: NC[C@@H](NC(=O)c1ccc(OCC2CCCCC2)cc1)c1ncc(CO)s1 . Reported IC50?
Result: > 15 µM

Q: Endpoint output: IC50 of O=C(N[C@@H](CC1CCNCC1)c1nc(CO)cs1)c1ccc(-c2ccc(C(F)(F)F)cc2)[nH]1 . Value?
Result: 8.5 µM
